system: HCT116 MTAP-/-; experiment: Inhibition of cellular proliferation (Cell Titer Glo), HCT116 MTAP-/-; assay type: cell-based, human; details: Homo sapiens, HCT-116, 96 h, Table 5a, 4 days, read-out: 4 Day Relative Growth Inhibition (MTAP −/−)
pIC50: −log10 of the molar value.
Experimental Endpoint: pIC50

Compound: COc1ccc(N2Cc3cnc(NCC(F)(F)F)nc3N(c3ccc(C4CC4)cc3)C2=O)cc1
Reading: 6.00 to 7.00
//
Compound: [2H]C([2H])([2H])Oc1ccc(N2C(=O)N(c3ccc4nn(CCC)cc4c3)Cc3ccc(OCC(F)F)nc32)cc1
Reading: 6.00 to 7.00
//
Compound: CCNc1ccc2c(n1)N(c1ccc(OC(F)F)cc1)C(=O)N(c1ccc3ncn(C)c3c1)C2
Reading: > 7.00
//
Compound: COc1ccc(N2Cc3cnc(NCC(F)(F)F)nc3N(c3ccc(Cl)cc3)C2=O)cc1
Reading: < 6.00
